Cited source for all entries: ChEMBL document CHEMBL3864129

# protocol: Cytotoxicity against African green monkey BSC1 cells assessed as decrease in cell viability after 24 hrs by MTT assay
# Type: toxicity, cell-based, Chlorocebus aethiops, BSC-1
# measurementParameters: bsc-1
parameterMeasured: IC50

{"smilesEntry": "COc1cc(Br)c(Br)c(Br)c1Oc1cc(Br)cc(Br)c1OC", "IC50": "> 50 µg/mL"}
{"smilesEntry": "COc1c(Br)cc(Br)cc1Oc1c(Br)cc(Br)c(Br)c1OC", "IC50": "> 50 µg/mL"}
{"smilesEntry": "Oc1c(Br)cc(Br)cc1Oc1c(O)c(Br)c(Br)c(Br)c1Br", "IC50": "> 50 µg/mL"}
{"smilesEntry": "Oc1c(Br)cc(Br)cc1Oc1ccc(Br)cc1Br", "IC50": "32 µg/mL"}

Could you tell me which IC50 is on file for `COc1c(Br)cc(Br)cc1Oc1c(Br)c(OC)c(Br)c(Br)c1OC` ?
> 50 µg/mL

// returns reported IC50 for input `Oc1c(Br)cc(Br)cc1Oc1c(O)c(Br)cc(Br)c1Br`
> 50 µg/mL

Tell me the measured IC50 of `Oc1c(Br)c(Br)c(Br)c(Br)c1Oc1ccc(Br)cc1Br` , please.
29 µg/mL

Form field: reported IC50 of `Oc1c(Br)cc(Br)cc1Oc1c(Br)cc(Br)c(Br)c1O`
> 50 µg/mL

Requested read-out: IC50. Entry: `Oc1c(Br)cc(Br)cc1Oc1cc(Br)c(Br)c(Br)c1O`
> 50 µg/mL

Looking for the measured IC50 of `Oc1cc(Br)c(Br)cc1Oc1ccc(Br)cc1Br` , can you help?
8.8 µg/mL

---

# Tested on: Staphylococcus aureus
# protocol: Antimicrobial activity against Staphylococcus aureus ATCC 43300 by CLSI M07-A9 method
# Assay type: functional
As shown below, each of these molecules has a reported MIC value.
Provide only the numeric value, understood in µg/mL.

{"smilesEntry": "Oc1c(Br)cc(Br)cc1Oc1cc(Br)c(Br)c(Br)c1O", "MIC [µg/mL]": 0.16}
{"smilesEntry": "Oc1c(Br)cc(Br)cc1Oc1ccc(Br)cc1Br", "MIC [µg/mL]": 0.19}
{"smilesEntry": "COc1c(Br)cc(Br)cc1Oc1c(Br)c(OC)c(Br)c(Br)c1OC", "MIC [µg/mL]": 3.1}
{"smilesEntry": "COc1c(Br)cc(Br)cc1Oc1ccc(Br)cc1Br", "MIC [µg/mL]": 0.4}
{"smilesEntry": "Oc1cc(Br)c(Br)cc1Oc1ccc(Br)cc1Br", "MIC [µg/mL]": 0.015}
{"smilesEntry": "Oc1c(Br)c(Br)c(Br)c(Br)c1Oc1ccc(Br)cc1Br", "MIC [µg/mL]": 0.8}

MIC lookup needed for `Oc1c(Br)cc(Br)cc1Oc1c(O)c(Br)cc(Br)c1Br` , thanks.
0.31

Suppose we examine the molecule `Oc1cc(Br)cc(Br)c1Oc1ccc(Br)cc1Br` ; what MIC value has been reported?
0.08

---

Reported MIC values are given for each entry in this list.
# Tested on: Enterococcus faecium
# protocol: Antimicrobial activity against Enterococcus […] ATCC 51299 by CLSI M07-A9 method
# Format: functional
Give the quantity in µg/mL, number only.

{"smilesEntry": "Oc1c(Br)c(Br)c(Br)c(Br)c1Oc1ccc(Br)cc1Br", "targetOrTestSystem": "Enterococcus faecium", "MIC, µg/mL": 33}
{"smilesEntry": "Oc1c(Oc2ccc(Br)cc2Br)cc(Br)c(Br)c1Br", "targetOrTestSystem": "Enterococcus faecium", "MIC, µg/mL": 1.2}

Now for another entry.
Report MIC for `Oc1c(Br)cc(Br)cc1Oc1c(O)c(Br)cc(Br)c1Br` please.
3.1

---

Documented MIC across a set of molecules
# Tested on: Enterococcus faecium
# protocol: Antimicrobial activity against Enterococcus […] ATCC 51299 by CLSI M07-A9 method
# Type: functional
Give just the numeric value; µg/mL need not be written.

Take a look at these entries with their results.
{"smilesEntry": "Oc1cc(Br)cc(Br)c1O", "targetOrTestSystem": "Enterococcus faecium", "MIC, µg/mL": 25}
{"smilesEntry": "Oc1c(Br)cc(Br)cc1Oc1cc(Br)c(Br)c(Br)c1O", "targetOrTestSystem": "Enterococcus faecium", "MIC, µg/mL": 0.78}

Here is the next item to consider.
Find the recorded MIC belonging to `COc1c(Br)c(Br)c(O)c(Oc2cc(Br)cc(Br)c2O)c1Br` and report it.
1.56

---

// reported IC50 for each item listed
# protocol: Cytotoxicity against African green monkey BSC1 cells assessed as decrease in cell viability after 24 hrs by MTT assay
# Assay type: toxicity, cell-based, Chlorocebus aethiops, BSC-1
# measurementParameters: bsc-1
Give your result in µg/mL as a bare value.

Can you look up the measured IC50 of `Oc1cc(Br)cc(Br)c1Oc1ccc(Br)cc1Br` for me?
7

// IC50 lookup, key: `Oc1c(Oc2ccc(Br)cc2Br)cc(Br)c(Br)c1Br`
15

Value lookup for IC50; key = `COc1c(Br)cc(Br)cc1Oc1ccc(Br)cc1Br`
35

---

MIC for assorted molecules
# Test system: Staphylococcus aureus
# protocol: Antimicrobial activity against Staphylococcus aureus ATCC 43300 by CLSI M07-A9 method
# Assay type: functional
Expressed in µg/mL, but write only the number.

{"smilesEntry": "Oc1c(Br)cc(Br)cc1Oc1c(O)c(Br)c(Br)c(Br)c1Br", "experimentalValue": 0.16}
{"smilesEntry": "COc1c(Br)c(Br)c(O)c(Oc2cc(Br)cc(Br)c2O)c1Br", "experimentalValue": 0.39}
{"smilesEntry": "Oc1cc(Br)c(Br)c(Br)c1Oc1cc(Br)cc(Br)c1O", "experimentalValue": 0.078}
{"smilesEntry": "Oc1c(Br)cc(Br)cc1Oc1c(Br)cc(Br)c(Br)c1O", "experimentalValue": 0.16}
{"smilesEntry": "Oc1ccccc1Oc1ccccc1O", "experimentalValue": 50}
{"smilesEntry": "Oc1cc(Br)cc(Br)c1Oc1cc(Br)cc(Br)c1O", "experimentalValue": 1.25}

Lab note: next molecule to report on.
What value of measured MIC is listed for `Oc1c(Oc2ccc(Br)cc2Br)cc(Br)c(Br)c1Br` ?
0.4

---

# System: Enterococcus faecium
# protocol: Antimicrobial activity against Enterococcus […] ATCC 51299 by CLSI M07-A9 method
# Format: functional
Here the recorded MIC is given for each entry.

Past entries and their recorded results:
{"smilesEntry": "COc1cc(Br)c(Br)c(Br)c1Oc1cc(Br)cc(Br)c1OC", "MIC": "> 50 µg/mL"}
{"smilesEntry": "Oc1ccccc1Oc1ccccc1O", "MIC": "> 50 µg/mL"}

Now consider the entry below.
Query MIC on Enterococcus faecium for `COc1c(Br)cc(Br)cc1Oc1c(Br)c(Br)cc(Br)c1OC`
> 50 µg/mL

---

# Tested on: Staphylococcus aureus
# protocol: Antimicrobial activity against Staphylococcus aureus ATCC 43300 by CLSI M07-A9 method
# Type: functional
Recorded MIC, one value per entry.

Worked set:
{"molecule": "COc1c(Br)cc(Br)cc1Oc1c(Br)c(Br)cc(Br)c1OC", "targetOrTestSystem": "Staphylococcus aureus", "MIC": "> 50 µg/mL"}
{"molecule": "Oc1cc(Br)cc(Br)c1O", "targetOrTestSystem": "Staphylococcus aureus", "MIC": "> 50 µg/mL"}
{"molecule": "Cc1onc(-c2ccccc2)c1C(=O)N[C@@H]1C(=O)N2[C@@H]1SC(C)(C)[C@@H]2C(=O)O [OXACILLIN]", "targetOrTestSystem": "Staphylococcus aureus", "MIC": "> 32 µg/mL"}
{"molecule": "COc1cc(Br)c(Br)c(Br)c1Oc1cc(Br)cc(Br)c1OC", "targetOrTestSystem": "Staphylococcus aureus", "MIC": "> 50 µg/mL"}
{"molecule": "COc1c(Br)cc(Br)cc1Oc1c(Br)cc(Br)c(Br)c1OC", "targetOrTestSystem": "Staphylococcus aureus", "MIC": "> 50 µg/mL"}

Look up MIC: `COc1c(Br)cc(Br)cc1Oc1cc(Br)c(Br)c(Br)c1OC`
> 50 µg/mL
